# Tested on: SNU-638
# Procedure details: Antiproliferative activity against human SNU638 cells assessed as reduction in cell viability by sulforhodamine B assay
# Type: functional, cell-based
Kindly state IC50 for each of the entries shown.

In the examples that follow, each entry is paired with its recorded IC50.
Molecule	IC50
COc1cc([C@@H]2c3cc4c(cc3[C@@H](O[C@@H]3O[C@@H]5CO[C@@H](C)O[C@H]5[C@H](O)[C@H]3O)[C@H]3COC(=O)[C@H]23)OCO4)cc(OC)c1O [ETOPOSIDE]	520 nM
C[C@@H]1\C=C/C=C/C=C\C=C\C=C\C(=O)C2=C(O)C(=O)C[C@@]2(C)/C=C/C=C\C=C/C(=O)NC1	380 nM

Lab note: next molecule to report on.
So what IC50 did "CC1=C/C[C@@H](O)CC(=O)/C=C/C=C/C=C\C=C\C=C/[C@@H](C)CNC(=O)\C=C/C=C\C=C\1" get with SNU-638? 850 nM
